- System: HIPK2
- setup conditions: concentration: 1 μM, replicates: in singlicate; n = 1;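 further: KINOMEscan kinase panel screen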
Listing of entries alongside the reported %Inh.
reported endpoint: %Inh (%)

# compound, value observed
measured = [
    ("CN(C)S(=O)(=O)c1cc(-c2ccc3nccc(-c4cccc(S(N)(=O)=O)c4)c3c2)cnc1N [GSK1669921]", 36),
    ("COc1cccc(-c2ccc3c(NC(=O)C4CC4)n[nH]c3n2)c1 [SB-710903]", 0),
    ("Cn1cc(-c2ccc3c(c2)CCN3C(=O)Cc2cccc(Cl)c2)c2c(N)ncnc21 [GSK2606590]", 0),
    ("Cl.Cl.NCC(NCc1ccc(-c2ccnc3[nH]ccc23)s1)c1ccccc1 (stereo not shown) [GSK1321565]", 55),
    ("COC(=O)Nc1nc2cc(Oc3ccc(NC(=O)Nc4cc(C(F)(F)F)ccc4F)cn3)ccc2[nH]1.Cl.Cl [GW681170]", 0),
    ("COc1ccc(-c2coc3ccc(-c4nnc(SCc5ccc(OC)c(C(F)(F)F)c5)o4)cc23)cc1", 17),
    ("O=C(Nc1cccc(Oc2ccc3nc(NC(=O)C4CC4)cn3n2)c1)c1ccccc1C(F)(F)F", 0),
    ("Cc1occc1-c1ncc(OC[C@@H](N)Cc2c[nH]c3ccccc23)cc1-c1ccc2[nH]nc(C)c2c1.O=C(O)C(F)(F)F [GSK682037]", 0),
    ("CNC(=O)c1ccccc1Nc1nc(Nc2ccc(N3CCOCC3)cc2)ncc1Cl.Cl [GSK1576028]", 99.3),
    ("O=C(Nc1cccc(-c2nn3ncccc3c2-c2ccnc(Nc3ccccc3)n2)c1)c1c(F)cccc1F [GSK198271]", 0),
    ("CSc1cccc2c(-c3ccncn3)c(-c3ccc(F)cc3)nn12 [GW514786]", 0),
    ("CN(C)Cc1ccc(-c2ccc3c(Nc4ccc(Oc5ccccn5)cc4)ccnc3c2)o1 [GW567148]", 0),
    ("CC(=O)N1CCN(c2ccc(Nc3nccc(-c4sc(C(C)C)nc4-c4cccc(NS(=O)(=O)c5cccc(Cl)c5)c4)n3)cn2)CC1 [GSK1660437]", 5),
    ("O=C(Nc1cccc(-c2nn3ccccc3c2-c2ccnc(Nc3cccc(F)c3)n2)c1)c1c(F)ccc(F)c1Cl [GSK357952]", 13),
    ("CCS(=O)(=O)c1ccc(OC)c(Nc2nccc(-c3c(-c4cccc(NC(=O)c5c(F)cccc5F)c4)nn4ncccc34)n2)c1 [GSK326180]", 0),
    ("O=c1[nH]cc(-c2ccc(N3CCOCC3)cc2)c2sc(-c3cn[nH]c3)cc12 [GSK2276055]", 97.5),
]

----------
- Tested on: RPS6KA4(Kin.Dom.2-C-terminal)
- setup conditions: concentration: 1 μM, replicates: in singlicate; n = 1
Listing of entries alongside the reported %Inh.
reported endpoint: %Inh (%)

# molecule, reported endpoint, value observed
measured = [
    ("COc1cc(Nc2nccc(N3CCC(NC(=O)Nc4cccc(C(C)=O)c4)C3)n2)cc(OC)c1OC (centres unmarked)", "%Inh", 0),
    ("CCCCc1nn2ncccc2c1-c1ccnc(Nc2ccc(N3CCN(C)CC3)cc2)n1", "%Inh", 0),
    ("O=C(Nc1n[nH]c2nc(-c3ccc(O)cc3)ccc12)C1CC1", "%Inh", 99.5),
    ("Cn1cc(-c2[nH]c3cc(NC(=O)[C@H](N)C4CCCCC4)cc4c3c2C=NNC4=O)cn1", "%Inh", 96.2),
    ("CN1CCN(Cc2cccc(-c3ccc4c(Nc5ccc(Oc6ccccc6)cc5)ccnc4c3)c2)CC1", "%Inh", 0),
    ("Fc1ccc(-c2ncn(C3CCNCC3)c2-c2ccnc(Oc3ccc(-c4ccccc4)cc3)n2)cc1", "%Inh", 0),
    ("COc1cc(Nc2nccc(N3CCC(NC(=O)c4cc5ccccc5s4)C3)n2)cc(OC)c1OC (centres unmarked)", "%Inh", 0),
    ("COc1ccc(Nc2nccc(N3CCC(NC(=O)Nc4cccc(OC)c4)C3)n2)cc1 (centres unmarked)", "%Inh", 0),
]

----------
Listing of entries alongside the reported %Inh.
- System: TIE2
- Construct: gene TEK
- setup conditions: concentration: 1 μM, replicates: in singlicate; n = 1

# molecule, study system, %Inh, %
data = [
    ("CN1CCN(Cc2cccc(-c3ccc4c(Nc5ccc(Oc6ccccc6)cc5)ccnc4c3)c2)CC1", "TIE2", 0),
    ("O=C(Nc1cccc(Oc2ccc3nc(NC(=O)C4CC4)cn3n2)c1)c1ccccc1C(F)(F)F", "TIE2", 14),
    ("Clc1ccc(-c2nn3ncccc3c2-c2ccnc(Nc3ccc4c(c3)OCCO4)n2)cc1", "TIE2", 0),
    ("CCCCc1nn2ncccc2c1-c1ccnc(Nc2ccc(N3CCN(C)CC3)cc2)n1", "TIE2", 80),
    ("O=C(Nc1cccc(-c2nn3ccccc3c2-c2ccnc(Nc3cccc(C(F)(F)F)c3)n2)c1)c1c(F)cccc1F", "TIE2", 0),
    ("Cn1cc(-c2ccc3c(c2)CCN3C(=O)Cc2cccc(F)c2)c2c(N)ncnc21", "TIE2", 48),
    ("CN(C)Cc1ccc(-c2ccc3c(Nc4ccc(Oc5ccccn5)cc4)ccnc3c2)o1", "TIE2", 0),
    ("c1ccc(-c2n[nH]cc2Nc2ccnc3ccccc23)nc1", "TIE2", 0),
    ("Cl.NC(=O)c1cccc(Nc2nccc(Nc3ccc(Oc4c(Cl)cccc4Cl)c(Cl)c3)n2)c1", "TIE2", 0),
    ("O=C(O)C(F)(F)F.O=C(O)C(F)(F)F.O=c1[nH]ccc2nc(N[C@@H]3CCCNC3)nc(Nc3ccc(S(=O)(=O)N4CCOCC4)cc3)c12", "TIE2", 0),
    ("CCn1c(-c2nonc2N)nc2c(C#CC(C)(C)O)nc(OC[C@H](N)c3ccccc3)cc21", "TIE2", 0),
    ("Cc1ccc(C)c(NC(=O)NC2CCN(c3ccnc(Nc4ccc(F)cc4)n3)C2)c1 (stereo not shown)", "TIE2", 0),
    ("CC(C)(C)c1ccc2nccc(Nc3cccc(O)c3)c2c1", "TIE2", 2),
    ("O=C(Nc1cccc(-c2nn3ccccc3c2-c2ccnc(Nc3cccc(F)c3)n2)c1)c1c(F)ccc(F)c1Cl", "TIE2", 22),
    ("FC(F)(F)c1ccc(/C=C/c2cncnc2Nc2ccc3[nH]c(Cc4ccccc4)nc3c2)cc1", "TIE2", 15),
    ("C[C@@H](Oc1cc(-n2cnc3cc(-c4ccnc(NCCS(C)(=O)=O)c4)ccc32)sc1C(N)=O)c1ccccc1Cl", "TIE2", 56),
]

----------
Listing of entries alongside the reported %Inh.
- Tested on: BUB1
- setup conditions: concentration: 1 μM, replicates: in singlicate; n = 1
reported endpoint: %Inh

# molecule, reported endpoint, value observed
measured = [
    ("CN1CCN(Cc2cccc(-c3ccc4c(Nc5ccc(Oc6ccccc6)cc5)ccnc4c3)c2)CC1", "%Inh", "35%"),
    ("Nc1ncc(-c2ccc3nccc(-c4ccncc4)c3c2)cc1S(=O)(=O)N1CCOCC1", "%Inh", "12%"),
    ("C[C@@H]1CC[C@@H](C(=O)Nc2ccccc2)CN1c1cc(-c2ccc3c(N)n[nH]c3c2)nc(N)n1", "%Inh", "16%"),
    ("COc1ccc(CNC(=O)NC2CCN(c3ccnc(Nc4ccc(F)cc4)n3)CC2)cc1", "%Inh", "56%"),
    ("c1ccc(-c2n[nH]cc2Nc2ccnc3ccccc23)nc1", "%Inh", "88%"),
    ("Cn1cc(-c2[nH]c3cc(NC(=O)[C@H](N)C4CCCCC4)cc4c3c2C=NNC4=O)cn1", "%Inh", "100%"),
    ("Nc1n[nH]c2cnc(-c3ccccc3)cc12", "%Inh", "44%"),
    ("COC(=O)Nc1nc2cc(Oc3ccc(NC(=O)Nc4cc(C(F)(F)F)ccc4F)cn3)ccc2[nH]1.Cl.Cl", "%Inh", "3%"),
]

----------
- System: SNARK
- Construct: gene NUAK2
- setup conditions: concentration: 1 μM, replicates: in singlicate; n = 1

# compound, %Inh
rows = [
    ("Cc1cccc(Nc2nc(N[C@H]3CCNC3)ncc2C(N)=O)c1.Cl [GSK2197149]", "34%"),
    ("NCCCC(NC(=O)c1cc(Br)c(-c2ccnc3[nH]ccc23)s1)c1ccccc1.O=C(O)C(F)(F)F.O=C(O)C(F)(F)F (stereo not shown) [GSK1287544]", "88%"),
    ("c1ccc(-c2cnc3nccnn23)cc1 [AH20685]", "0%"),
    ("Cc1ccc(S(=O)(=O)Nc2ccc(Nc3nccc(Nc4cccc5[nH]ncc45)n3)cc2)cc1 [GSK581271]", "0%"),
]

----------
- System: CDK4-cyclinD3
- setup conditions: concentration: 1 μM, replicates: in singlicate; n = 1
Listing of entries alongside the reported %Inh.

# compound, study system, units, %Inh
rows = [
    ("CC(C)(C)c1ccc2nccc(Nc3cccc(O)c3)c2c1 [GW856795]", "CDK4-cyclinD3", "%", 0),
    ("COc1cc(Nc2nccc(-c3c(-c4cccc(NC(=O)c5c(F)cccc5F)c4)nn4ncccc34)n2)cc(OC)c1OC [GSK327238]", "CDK4-cyclinD3", "%", 97.4),
    ("O=C(Nc1cccc(Oc2ccc3nc(NC(=O)C4CC4)cn3n2)c1)c1ccccc1C(F)(F)F", "CDK4-cyclinD3", "%", 0),
    ("Cc1ccc(S(=O)(=O)Nc2ccc(Nc3nccc(Nc4cccc5[nH]ncc45)n3)cc2)cc1 [GSK581271]", "CDK4-cyclinD3", "%", 0),
]
